These entries and their values trace back to patent US20100144025A1.

measured.target: HLA-A24 molecule (the product of HLA-A*2402 gene) (human)
experimental.readout: -log Kd

GET /values?readout=-log Kd&item= ALHQVFGAI (modifications not checked) [SEQ ID NO 19]
6.05 -log Kd

Reported -log Kd for WYAQIQPHW (modifications not checked) [SEQ ID NO 1] : what is it?
8.64 -log Kd

Recorded -log Kd of PMSTYGWNL (modifications not checked) [SEQ ID NO 22] , please.
7.62 -log Kd

Look up -log Kd for this binder: ELPETLETL (modifications not checked) [SEQ ID NO 9]
7.01 -log Kd

Which -log Kd value belongs to AFSGVSWTM (modifications not checked) [SEQ ID NO 2] ?
8.19 -log Kd

Which measured -log Kd value corresponds to ALSELPETL (modifications not checked) [SEQ ID NO 12] ?
5.5 -log Kd

-log Kd lookup needed for ALVAFLRFL (modifications not checked) [SEQ ID NO 21] , thanks.
5.68 -log Kd

// returns reported -log Kd for input IQKETLVTF (modifications not checked) [SEQ ID NO 18]
7.24 -log Kd

I am curious: what -log Kd value has been reported for DWIPLALTI (modifications not checked) [SEQ ID NO 25] ?
8 -log Kd
